Test system: MLK3;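 further: KINOMEscan scanMAX binding as percent activity remaining versus control; lower means stronger binding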
Construct: gene MAP3K11
Settings: Compound Concentration (nM):1000
experimental_readout: Percent Control (%)
Express the result in % but write the number alone.

Short answer on MLK3 for Cl.O=S1CCN(Cc2ccc(-c3ccc4ncnc(Nc5ccc(OCc6ccccc6)c(F)c5)c4c3)o2)CC1 [GW576924A] , Percent Control: 100

Short answer on MLK3 for NS(=O)(=O)c1ccc(N/N=C2\C(=O)Nc3ccc(C(=O)NCCc4c[nH]cn4)cc32)cc1 [GW300660X] , Percent Control: 100

Short answer on MLK3 for Cc1cc(O)cc(C)c1/C=C/c1cncc(C(N)=O)c1 [GW435821X] , Percent Control: 100

Short answer on MLK3 for C/C(Nc1ccc(S(N)(=O)=O)cc1)=C1/C(=O)Nc2ccccc21 [GW335962X] , Percent Control: 98
